Data provenance: PubChem BioAssay

Entries and their composite z-score values follow.
# System: Inhibin beta A chain (activin A)
# Protocol Notes: INHBA (activin A) binders on microarrays, primary screen, biochemical, small-molecule microarray, 635 nm fluorescence scan (AID 1107);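 also: mouse activin A protein probed at 4.33 µg/mL on printed slides; score merges bound-protein fluorescence near 667 nm with spot signal-to-noise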
# Details: small-molecule microarray binding, higher = more signal
Measure: composite z-score

{"Compound": "CCN1C(=O)[C@H]2[C@H]3[C@H](O)[C@H](O)CC(=NO[C@@H]4O[C@H](CO)[C@@H](O)[C@H](O)[C@H]4O)[C@@H]3CC[C@H]2C1=O", "Result": 0.613}
{"Compound": "CO[C@@H]1COC(=O)CC=C[C@@H](C)[C@@H]2C=C[C@@H](O)[C@@H](COC(=O)CC=C[C@H]1C)O2", "Result": 1.12}
{"Compound": "CCOC(=O)C[C@H]1[C@H](OC(=O)c2ccc(C(=O)c3ccccc3)cc2)[C@@H](NC(=O)c2ccc(-c3ccccc3)cc2)c2cc(OCCCO)ccc2N1C(=O)c1ccc2ccccc2n1", "Result": 0.23}
{"Compound": "CC(C)(C)OC(=O)CC[C@]1(C(=O)NCc2ccccc2)N=C(c2ccc(OCCCO)cc2)O[C@H]1c1ccccc1", "Result": -0.285}
{"Compound": "COc1ccc(-c2ccc3c(n2)CCCN3CC(O)CN2CCCc3nc(C)c(C)cc32)cc1 (stereo unspecified)", "Result": 1.6}
{"Compound": "CC(C)NC(=O)[C@@]1(C)c2ccccc2C(=O)N(Cc2cc(F)cc(C(F)(F)F)c2)[C@H]1c1ccc(CO)cc1", "Result": 0.858}

---

# Protocol Notes: A549 cell viability effects, profiling panel, calcein-AM fluorescence, 48 h, basal (AID 1162); also: test concentration not given here
# Details: higher = more signal
Note that class boundaries on z-score are low bracket = under -0.2, middle bracket = from -0.2 up to 0.3, high bracket = 0.3 and over

{"Compound": "O=C1[C@H]2[C@H]3[C@H](O)[C@H](O)CC(=NOCc4ccccc4)[C@H]3CC[C@H]2C(=O)N1c1ccc(F)cc1F", "Cat": "middle bracket"}
{"Compound": "Cc1cc2c(c(=O)o1)[C@H](O)[C@H]1O[C@H]1C2=O", "Cat": "low bracket"}
{"Compound": "CO[C@@H]1COC(=O)CC=C[C@@H](C)[C@@H]2C=C[C@H](O)[C@@H](COC(=O)[C@H](C)NC(=O)CC=C[C@H]1C)O2", "Cat": "high bracket"}
{"Compound": "CC(=O)O[C@H]1C2=C(C(=O)[C@@H]3O[C@@H]31)[C@H]1C(C)O[C@@H]2[C@@]23C(=O)[C@@H]4O[C@@H]4[C@@H](O)C2=CO[C@H](C)[C@@H]13 (stereo not given in full)", "Cat": "middle bracket"}
{"Compound": "COC(=O)[C@H](C)NC(=O)CCC1CC(OC(=O)NCCc2ccc(F)cc2)CC2(CCCC(COC(=O)NCC(c3ccccc3)c3ccccc3)O2)O1 (stereo not given in full)", "Cat": "middle bracket"}
{"Compound": "C[C@@H](c1ccccc1)N1C(=O)[C@H]2[C@H]3[C@H](O)[C@H](O)CC(=NNC(=O)OCc4ccccc4)[C@H]3CC[C@H]2C1=O", "Cat": "low bracket"}
{"Compound": "COc1ccc(O[C@H]2C=C[C@@H](c3ccccc3)O[C@@H]2COC(=O)N2CCCCC2)cc1", "Cat": "middle bracket"}
{"Compound": "CCOC(=O)[C@H](Cc1ccccc1)NC(=O)CCC1CC(OC(=O)NCCc2ccc(F)cc2)CC2(CCCC(COC(=O)NCC(c3ccccc3)c3ccccc3)O2)O1 (stereo not given in full)", "Cat": "middle bracket"}
{"Compound": "CO[C@H]1COC(=O)[C@@H]2CCCN2C(=O)CC=C[C@@H](C)[C@H](OC)COC(=O)CC=C[C@@H]1C", "Cat": "high bracket"}
{"Compound": "CC(CCN1CCc2nc(-c3ccccc3)c(-c3ccccc3)cc2C1)=NOC(C)CN1CCCCc2nc(C)c(C)cc21 (stereo not given)", "Cat": "high bracket"}
{"Compound": "COC(=O)CC=C[C@@H](C)[C@@H](C=NO[C@H](C)c1cn([C@@H]2COC[C@H]2O)nn1)OC", "Cat": "high bracket"}
{"Compound": "C[C@H](c1ccccc1)N1C(=O)[C@H]2[C@@H]3C(=CC[C@H]2C1=O)C(=O)[C@H]1O[C@H]1[C@H]3O", "Cat": "low bracket"}
{"Compound": "COCCCNC(=O)[C@@]1(C)c2ccccc2C(=O)N(Cc2ccc(OC(F)(F)F)cc2)[C@H]1c1ccc(CO)cc1", "Cat": "middle bracket"}
{"Compound": "COC(=O)CC=C[C@H](C)[C@H](CO)NS(=O)(=O)c1ccc(C)cc1", "Cat": "low bracket"}
